Assay: NCI Yeast Anticancer Drug Screen. Data for the mec2-1 strain (AID 157)
Settings: S. cerevisiae mec2-1 strain, at 50.0 µM, hits give high values
Compounds without any hit were thinned out: in the full panel of roughly 79,000, 15% have a hit.
I'd be grateful if you could share measured growth inhibition for these entries.
Express it in %; write the number only.

Exam item: Sample `C[C@H](CCC(=O)O)[C@H]1CC[C@H]2[C@@H]3[C@H](O)C[C@@H]4C[C@H](O)CC[C@]4(C)[C@H]3CC[C@]12C` — what was its growth inhibition?
Marked response: 91.3

Exam item: Sample `Cc1nc2c(ccc3[nH]c4ccccc4c32)s1` — what was its growth inhibition?
Marked response: 92.5

Exam item: Sample `C1=C(c2ccccc2)N(CCc2ccccc2)C(c2ccccc2)=CN1Cc1ccccc1` — what was its growth inhibition?
Marked response: 98.5

Exam item: Sample `O=C(C(c1ccccc1)c1ccccc1)C(c1ccccc1)c1ccccc1` — what was its growth inhibition?
Marked response: 0.85

Exam item: Sample `NNC(=O)c1ccc(NC(=O)CSc2nc3ccccc3s2)cc1` — what was its growth inhibition?
Marked response: 79

====

Test: NCI Yeast Anticancer Drug Screen. Data for the mlh1 rad18 strain (AID 175)
Conditions: S. cerevisiae mlh1 rad18 strain growth inhibition; at 5.0 µM (retest, dose inferred, filed as 0.5); hits give high values
Compounds without any hit were thinned out: in the full panel of roughly 79,000, 15% have a hit. Calls of active or inactive are those of the source. Cut-off read from the data, not from the text of the source: active = growth inhibition above about 70%; inactive = the rest.
PROPERTY MEASURED: growth inhibition

Exam item: Sample COc1ccc(C2c3cc4c(cc3OC(NNC(N)=O)C2C)OCO4)cc1 (centres undefined) — what was its growth inhibition?
Marked response: 6% (inactive)

Exam item: Sample `COc1ccc(Oc2ccccc2N)cc1` — what was its growth inhibition?
Marked response: -3% (inactive)

Exam item: Sample `C=CCN(CC=C)C(CC(=O)C(C)(C)C)=NCC` — what was its growth inhibition?
Marked response: -11% (inactive)

Exam item: Sample CC1(C)OC2C(O)C(O)C3OC(C)(C)OC3C2O1 (centres undefined) — what was its growth inhibition?
Marked response: 25% (inactive)

====

Test: NCI Yeast Anticancer Drug Screen. Data for the sgs1 mgt1 strain (AID 161);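 further: 0% = growth of cultures given vehicle only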
Conditions: S. cerevisiae sgs1 mgt1 strain, at 50.0 µM
The panel holds about 79,000 compounds, 15% with a hit somewhere; the sample as a whole holds those more often. Activity calls are given as the source filed them. No stated cut-off is given here; in the data, active means growth inhibition above about 70%; inactive means the rest.
Write down the outcome that applies. Available outcomes: 1 = active, -1 = inactive

Exam item: # lookup: test call for `CC1=C(C(=O)Nc2c(C)cccc2C)C(c2ccc3c(c2)OCO3)C(C(=O)Nc2c(C)cccc2C)=C(C)N1`
Marked response: 1

Exam item: # lookup: test call for `CCOC(=O)/C(=C/c1ccc(OC)c(OC)c1)C(=O)c1ccccc1`
Marked response: -1

Exam item: # lookup: test call for `Cc1nc2cc(Cl)ccc2n1-c1ccccc1`
Marked response: 1

Exam item: # lookup: test call for COC1/C=C\C=C(/C)C(=O)Nc2cc3nc4ccc(Br)cc4oc-3c(c2=O)CC(C)CC(OC)C(O)C(C)/C=C(\C)C1OC(N)=O (centres undefined)
Marked response: 1

====

I'd be grateful if you could share measured growth inhibition for these entries.
Assay: NCI Yeast Anticancer Drug Screen. Data for the mec2-1 strain (AID 157)
Conditions: S. cerevisiae mec2-1 strain, at 50.0 µM, hits give high values
This is part of a sample that, as a whole, favours compounds with a hit. Of some 79,000 tested, about 15% had one in any assay.
Express it in %; write the number only.

Exam item: Sample `O=C(Nc1cc(-c2ccccc2)[nH]n1)c1ccccc1F` — what was its growth inhibition?
Marked response: 86

Exam item: Sample `CCOC(=O)/C(=C/c1ccc(OC)c(OC)c1)C(=O)c1ccccc1` — what was its growth inhibition?
Marked response: 68

Exam item: Sample `Fc1ccc(NC(=S)SCc2ccc3c(c2)OCO3)cc1` — what was its growth inhibition?
Marked response: 98.5

Exam item: Sample CCOc1ccc2ccccc2c1C(Cc1ccc(Cl)cc1)NCCO (centres undefined) — what was its growth inhibition?
Marked response: 93.5

Exam item: Sample CCC[CH2][Sn]1([CH2]CCC)[O]N=C(c2ccccc2)C(c2ccccc2)[O]1 (centres undefined) — what was its growth inhibition?
Marked response: 87.8

Exam item: Sample `CCc1[nH]c(=O)nc(N)c1-c1ccc(N2CCCCC2)c([N+](=O)[O-])c1` — what was its growth inhibition?
Marked response: 86.8

Exam item: Sample `CCOC(CN=c1nc(N(C)C)ss1)OCC` — what was its growth inhibition?
Marked response: -8

Exam item: Sample Oc1cc2c(cc1C(c1ccc3c(c1)OCO3)N1CCN(C(c3ccc4c(c3)OCO4)c3cc4c(cc3O)OCO4)CC1)OCO2 (centres undefined) — what was its growth inhibition?
Marked response: 92.8

Exam item: Sample C=C1C(=O)C23OC2C1CCC(=O)C1(C)CC[C@H](OC(C)=O)C(C)(C)[C@H]1CC3=O (some centres undefined) — what was its growth inhibition?
Marked response: 99.5

Exam item: Sample `CC(=O)Nc1ccc(S(=O)(=O)N(CCO)CCO)cc1` — what was its growth inhibition?
Marked response: 98.5

Exam item: Sample `OC(CF)(c1ccc(Cl)cc1)c1ccc(Cl)cc1` — what was its growth inhibition?
Marked response: 92.5

Exam item: Sample CCC1CCCC(=O)C1 (centres undefined) — what was its growth inhibition?
Marked response: 53.6

Exam item: Sample `c1ccc2c(c1)CC1=C(O2)c2ccccc2OC1` — what was its growth inhibition?
Marked response: 39.5

Exam item: Sample `CC(=O)OCC(=O)[C@H]1CC[C@H]2[C@@H]3CC=C4C[C@@H](O)CC[C@]4(C)[C@H]3CC[C@]12C` — what was its growth inhibition?
Marked response: -5.65

====

Experiment: NCI Yeast Anticancer Drug Screen. Data for the mec2-1 strain (AID 157)
Details: S. cerevisiae mec2-1 strain, at 50.0 µM, hits give high values
About 79,000 compounds went through this panel and 15% of them were active in at least one assay; those are over-represented in the sample as a whole.
I'd be grateful if you could share measured growth inhibition for these entries.
Express it in %; write the number only.

Exam item: Sample CC(=O)OC1OC(=O)C(C)(C(C)=O)C1C (stereo unspecified) — what was its growth inhibition?
Marked response: 89.6

Exam item: Sample `COC(=O)CSC(=S)N1CCOCC1` — what was its growth inhibition?
Marked response: -5.75

Exam item: Sample `Cc1c2ccccc2c(C=O)c2ccccc12` — what was its growth inhibition?
Marked response: 89

Exam item: Sample `COc1ccc(/C=C/C(=O)CCN2CCN(CCC(=O)/C=C/c3ccc(OC)cc3)CC2)cc1` — what was its growth inhibition?
Marked response: 90.7

Exam item: Sample COC(=O)C(CC(C)=O)CS(=O)(=O)CC(=O)C(=O)Nc1cccc([N+](=O)[O-])c1 (stereo unspecified) — what was its growth inhibition?
Marked response: 99.5

Exam item: Sample `C=CCOC(=O)c1ccc(C(=O)OCC=C)cc1` — what was its growth inhibition?
Marked response: 52.2

====

Assay: NCI Yeast Anticancer Drug Screen. Data for the mlh1 rad18 strain (AID 175)
Settings: S. cerevisiae mlh1 rad18 strain growth inhibition; at 5.0 µM (retest, dose inferred, filed as 0.5)
This is part of a sample that, as a whole, favours compounds with a hit. Of some 79,000 tested, about 15% had one in any assay. Active and inactive are the calls of the source. No stated cut-off is given here; in the data, active means growth inhibition above about 70%; inactive means the rest. Where a SMILES comes first, the peptide text is derived from it.
Write down the outcome that applies. Available outcomes: active, inactive

Exam item: # lookup: test call for C=C1C(=O)N2c3ccccc3C(C)(C)C2(S)C(=O)N1C (stereo not drawn)
Marked response: inactive

Exam item: # lookup: test call for `CCCC1=CCCC1`
Marked response: inactive

Exam item: # lookup: test call for `CCCCCCCCCCCCCCCCBr`
Marked response: inactive

Exam item: # lookup: test call for O=P(C(=S)NC1CC2C=CC1C2)(c1ccccc1)c1ccccc1 (stereo not drawn)
Marked response: inactive

Exam item: # lookup: test call for `Clc1ccc(CNCCCNCc2ccc(Cl)cc2)cc1`
Marked response: active

Exam item: # lookup: test call for `COc1cc(OC)c(OC)cc1/C=C\c1ccnc2ccccc12`
Marked response: inactive

Exam item: # lookup: test call for CCC1CCCC(=O)C1 (stereo not drawn)
Marked response: inactive

Exam item: # lookup: test call for `CC(=O)Nc1ccc(S(=O)(=O)N/N=C/c2ccc(C)cc2)cc1`
Marked response: inactive

Exam item: # lookup: test call for `C=CC(=O)OCCOc1ccc(Cl)cc1Cl`
Marked response: inactive

Exam item: # lookup: test call for `Cc1ccccc1N=Nc1ccc(N=Nc2ccc(N)nc2N)c(C)c1`
Marked response: inactive

Exam item: # lookup: test call for `O=[N+]([O-])c1cc([N+](=O)[O-])c2ccccc2c1NS(=O)(=O)/C=C/c1ccccc1`
Marked response: inactive

Exam item: # lookup: test call for `Cn1c(N)nc(=O)c2[nH]cnc21`
Marked response: inactive

Exam item: # lookup: test call for `CCN1/C(=C/C=C/C=C/c2sc3ccccc3[n+]2CC)Sc2ccccc21`
Marked response: active

Exam item: # lookup: test call for `CC(C)c1ccc(C=Nc2ccc(SSc3ccc(N=Cc4ccc(C(C)C)cc4)cc3)cc2)cc1`
Marked response: inactive

Exam item: # lookup: test call for Cc1c(N)nc(C(CC(N)=O)NCC(N)C(N)=O)nc1C(=O)NC(C(=O)NC(C)C(O)C(C)C(=O)NC(C(=O)NCCc1nc(-c2nc(C(=O)NCCCNCCCCN)cs2)cs1)C(C)O)C(OC1OC(CO)C(O)C(O)C1OC1OC(CO)C(O)C(OC(N)=O)C1O)c1cnc[nH]1 (stereo not drawn)
Marked response: active

Exam item: # lookup: test call for `Fc1ccccc1-c1ncc(-c2ccccc2)o1`
Marked response: inactive

Exam item: # lookup: test call for `COC(=O)[C@@H](NS(=O)(=O)CC12CCC(CC1)C2(C)C)C(C)(C)C`
Marked response: inactive

Exam item: # lookup: test call for `O=c1[nH]c2cc([N+](=O)[O-])ccc2nc1/C=C(\O)c1ccc([N+](=O)[O-])cc1`
Marked response: inactive

Exam item: # lookup: test call for `O=C(O)CSCc1ccc(Cl)cc1`
Marked response: inactive

Exam item: # lookup: test call for `CC(C)(C)c1ccc(-c2c3ccccc3cc3ccccc23)cc1`
Marked response: inactive

Exam item: # lookup: test call for NCC(=O)OCN1C(=O)C2C3C=CC(C2C1=O)C1C2C(=O)N(COC(=O)CN)C(=O)C2C31 (stereo not drawn)
Marked response: inactive

Exam item: # lookup: test call for CC(C)C(NC(=O)C(N)CCC(=O)O)C(=O)O (stereo not drawn) (H-Glu-Val-OH; configuration not given here)
Marked response: inactive

Exam item: # lookup: test call for CCOP(=O)(OCC)C(C)(CC)NC(=O)C(C(F)(F)F)C(F)(F)F (stereo not drawn)
Marked response: inactive

Exam item: # lookup: test call for `C=C(C)C(=O)Oc1ccc(N=Nc2ccccc2)ccc1=O`
Marked response: inactive

Exam item: # lookup: test call for O=C(NCCCCCCNC(=O)n1cc(F)c(=O)[nH]c1=O)NCCCOCCOCCOCCOCCOCCOCCOCCOCCOCCOCCOCCOCCOCCOCCOCCOCCOCCOCCOCCOCCOCCCNC(=O)C(O)C(O)C(OC1OC(CO)C(O)C(O)C1O)C(O)CO (stereo not drawn)
Marked response: inactive

Exam item: # lookup: test call for `O=S(c1cc(Cl)cc(Cl)c1O)c1cc(Cl)cc(Cl)c1O`
Marked response: inactive

Exam item: # lookup: test call for `Cc1cc([N+](=O)[O-])c(C)c2c1[nH]c1ccc(O)cc12`
Marked response: active

Exam item: # lookup: test call for `O=C1c2ccccc2C(=O)c2cc(S(=O)(=O)O)ccc21`
Marked response: inactive

Exam item: # lookup: test call for `NNc1nc2ccccc2s1`
Marked response: inactive

Exam item: # lookup: test call for `CN(C)c1ccc(/C=C/c2ccc3ccccc3[n+]2C)cc1`
Marked response: inactive

Exam item: # lookup: test call for `CCCCCCCCCCCCN`
Marked response: active

Exam item: # lookup: test call for Nc1ncnc2c1ncn2C1SC(CO)C(O)C1O (stereo not drawn)
Marked response: inactive

Exam item: # lookup: test call for `CCCc1cc(=O)oc2c3c(c4c(c12)OC(C)(C)CC4)O[C@@H](C)[C@H](C)[C@H]3O`
Marked response: inactive
